Hi there, I'd appreciate the recorded IC50 for every entry that follows.
Assayed Target: human TLR2 (Homo sapiens (Human))
Method Description: HEK-Blue hTLR2 antagonism assay (SEAP reporter), agonist Pam2CSK4
Assay type: cell-based
Study Conditions: HEK-Blue hTLR2 cells; Pam2CSK4 (TLR2/6 agonist) at approx. 3×EC50; 18 h; 8-point dilutions
Include the unit after the number when you answer.

Lookup: // lookup IC50 for `O=Cc1cc(C(=O)Nc2cnc(N3CCCC3)c(C(F)(F)F)c2)cc(F)c1O`
Found: 0.4 µM

Lookup: Record: `O=Cc1cc(C(=O)NNc2cccc(Br)c2)cc(F)c1O`
Found: 38.4 µM

Lookup: Record: `O=Cc1cc(C(=O)Nc2cnc(N3CCCC3)s2)cc(F)c1O`
Found: 17.7 µM

Lookup: Record: `O=Cc1cc(C(=O)N2CCC(c3cccc(N4CCCC4)c3)CC2)cc(F)c1O`
Found: 13.8 µM

Lookup: Record: `O=Cc1cc(C(=O)Nc2ncc(-c3ccc(N4CCCC4)cc3)s2)cc(F)c1O`
Found: 1.5 µM

###

Assayed Target: human TLR2 (Homo sapiens (Human), UniProt O60603)
Sequence (O60603 21-784): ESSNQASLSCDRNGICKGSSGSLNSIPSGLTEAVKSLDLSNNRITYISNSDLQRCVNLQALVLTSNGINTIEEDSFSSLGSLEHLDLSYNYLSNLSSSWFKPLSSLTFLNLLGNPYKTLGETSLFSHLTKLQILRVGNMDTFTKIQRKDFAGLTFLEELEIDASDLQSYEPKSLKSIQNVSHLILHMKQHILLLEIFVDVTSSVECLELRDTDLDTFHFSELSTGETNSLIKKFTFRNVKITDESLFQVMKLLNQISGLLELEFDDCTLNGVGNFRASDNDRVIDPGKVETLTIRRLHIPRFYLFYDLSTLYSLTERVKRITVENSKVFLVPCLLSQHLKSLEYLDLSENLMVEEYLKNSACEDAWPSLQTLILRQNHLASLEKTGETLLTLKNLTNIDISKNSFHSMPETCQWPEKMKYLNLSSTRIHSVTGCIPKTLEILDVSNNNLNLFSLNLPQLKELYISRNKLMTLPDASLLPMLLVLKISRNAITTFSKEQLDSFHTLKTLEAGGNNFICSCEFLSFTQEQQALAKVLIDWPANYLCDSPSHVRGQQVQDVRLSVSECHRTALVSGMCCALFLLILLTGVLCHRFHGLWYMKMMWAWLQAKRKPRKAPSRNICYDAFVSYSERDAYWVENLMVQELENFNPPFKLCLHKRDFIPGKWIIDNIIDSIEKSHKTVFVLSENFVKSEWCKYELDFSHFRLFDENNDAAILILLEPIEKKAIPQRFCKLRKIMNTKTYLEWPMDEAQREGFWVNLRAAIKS
Method Description: HEK-Blue hTLR2 antagonism assay (SEAP reporter), agonist Pam3CSK4
Assay type: cell-based
Study Conditions: HEK-Blue hTLR2 cells; Pam3CSK4 (TLR1/2 agonist) at approx. 3×EC50; 18 h; 8-point dilutions
Measured Attribute: IC50 (µM)
The figure you give is taken to be in µM; do not add the unit.

Lookup: // lookup IC50 for O=Cc1cc(C(=O)NNc2cccc(Br)c2)cc(F)c1O [Compound 160]
Found: 26.5

Lookup: Record: C[C@H]1[C@H](c2ccc(N3CCCC3)cc2)OCCN1C(=O)c1cc(F)c(O)c(C=O)c1 (racemic) [Compound 151]
Found: 7

Lookup: Record: O=Cc1cc(C(=O)N2CCC(c3cccc(N4CCCC4)c3)CC2)cc(F)c1O [Compound 35]
Found: 8

Lookup: Record: COc1ccc(C2CN(C(=O)c3cc(F)c(O)c(C=O)c3)CCS2)cc1 (racemic) [Compound 152]
Found: 5.7

Lookup: Record: O=Cc1cc(-c2nc(-c3ccc(N4CCCC4)nc3)ns2)cc(F)c1O [Compound 130]
Found: 0.8

Lookup: Record: O=Cc1cc(C(=O)N2CC[C@@H](c3ccc(N4CCCC4)cc3)C2)cc(F)c1O (single isomer, unassigned) [Compound 157]
Found: 2.2

Lookup: Record: O=Cc1cc(-c2nc(-c3ccc(N4CCCC4)cc3)ns2)cc(F)c1OC(=O)N1CCOCC1 [Compound 174]
Found: 0.6

Lookup: Record: O=Cc1cc(C(=O)N2CCO[C@H](c3ccc(N4CCCC4)cc3)C2)cc(F)c1O (single isomer, unassigned) [Compound 149]
Found: 1.74

Lookup: Record: O=Cc1cc(C(=O)Nc2cnc(-c3ccnc(N4CCCC4)c3)s2)cc(F)c1O [Compound 168]
Found: 9.6

Lookup: Record: O/N=C\c1cc(-c2nc(-c3ccc(N4CCCC4)cc3)ns2)cc(F)c1O [Compound 171]
Found: 1.03

Lookup: Record: O=Cc1cc(NC(=O)c2ncc(-c3ccccc3)s2)cc(F)c1O [Compound 10]
Found: 0.9

Lookup: Record: O=Cc1cc(C(=O)Nc2ncc(-c3cccc(N4CCCC4)c3)s2)cc(F)c1O [Compound 12]
Found: 0.6

Lookup: Record: O=C(c1cc(F)c(O)c(/C=N/N2CCOCC2)c1)N1CCC(c2ccc(N3CCCC3)cc2)CC1 [Compound 164]
Found: 0.5

Lookup: Record: O=Cc1cc(C(=O)Nc2cnc(N3CCCC3)c(C(F)(F)F)c2)cc(F)c1O [Compound 19]
Found: 0.3

###

Assayed Target: human TLR2 (Homo sapiens (Human))
Method Description: HEK-Blue hTLR2 antagonism assay (SEAP reporter), agonist Pam3CSK4
Type: cell-based
Study Conditions: HEK-Blue hTLR2 cells; Pam3CSK4 (TLR1/2 agonist) at approx. 3×EC50; 18 h; 8-point dilutions
Measured Attribute: IC50 (µM)
The figure you give is taken to be in µM; do not add the unit.

Lookup: // lookup IC50 for O=Cc1cc(-c2nc(-c3ccc(N4CCCC4)cc3)ns2)cc(F)c1OC(=O)OC1CCOC1 (centres unmarked) [Compound 162]
Found: 4.3

Lookup: Record: O=Cc1cc(C(=O)NCCc2ccc(N3CCCC3)cc2)cc(F)c1O [Compound 143]
Found: 12.3

Lookup: Record: O=Cc1cc(C(=O)Nc2ccc(N3CCCC3)nn2)cc(F)c1O [Compound 92]
Found: 39

Lookup: Record: O=Cc1cc(-c2scnc2-c2ccccc2)cc(F)c1O [Compound 18]
Found: 20.3

Lookup: Record: O=Cc1cc(-c2nc(-c3ccc(N4CC(F)(F)C4)cc3)ns2)cc(F)c1O [Compound 169]
Found: 1.3

###

Assayed Target: human TLR2 (Homo sapiens (Human), UniProt O60603)
Method Description: HEK-Blue hTLR2 antagonism assay (SEAP reporter), agonist Pam2CSK4
Assay type: cell-based
Study Conditions: HEK-Blue hTLR2 cells; Pam2CSK4 (TLR2/6 agonist) at approx. 3×EC50; 18 h; 8-point dilutions
Protocol: Synthetic diacylated lipoprotein (Pam2CSK4, TLR2/6 agonist) and synthetic triacylated lipoprotein (Pam3CSK4, TLR1/2 agonist) were obtained from InvivoGen and were dissolved in endotoxin-free water to a concentration 1 mg/mL, vortexed until complete solubilization, and stored in aliquots at −20° C. […] On day 2, secreted alkaline phosphatase (SEAP) activity was detected in cell culture supernatants. […] IC50 values were calculated based on 8-point dilutions for each compound.
Measured Attribute: IC50
Include the unit after the number when you answer.

Lookup: Give human TLR2 (Homo sapiens (Human), UniProt O60603) IC50 for O=Cc1cc(C(=O)N2CC[C@H](c3ccc(N4CCCC4)cc3)C2)cc(F)c1O (single isomer, unassigned) [Compound 156]
Found: 3.7 µM

Lookup: Record: O=Cc1cc(-c2nc(-c3ccc(N4CCCC4)cc3)ns2)cc(F)c1OC(=O)OC1CCOC1 (stereo not shown) [Compound 162]
Found: 11.5 µM

Lookup: Record: O=Cc1cc(C(=O)Nc2ncc(N3CCCCC3)s2)cc(F)c1O [Compound 3]
Found: 2.3 µM

Lookup: Record: O=C(c1cc(F)c(O)c(/C=N/N2CCOCC2)c1)N1CCC(c2ccc(N3CCCC3)cc2)CC1 [Compound 164]
Found: 1.1 µM

###

Assayed Target: UniProt:O60603
Method Description: HEK-Blue hTLR2 antagonism assay (SEAP reporter), agonist Pam3CSK4
Format: cell-based
Study Conditions: HEK-Blue hTLR2 cells; Pam3CSK4 (TLR1/2 agonist) at approx. 3×EC50; 18 h; 8-point dilutions
Hi there, I'd appreciate the recorded IC50 for every entry that follows.
The figure you give is taken to be in µM; do not add the unit.

Lookup: Give UniProt:O60603 IC50 for O=Cc1cc(C(=O)Nc2nnc(N3CCCCC3)s2)cc(F)c1O [Compound 1]
Found: 21.8

Lookup: Record: CN(C)C(=O)Oc1c(F)cc(-c2nc(-c3ccc(N4CCCC4)cc3)ns2)cc1C=O [Compound 173]
Found: 0.5

Lookup: Record: O=Cc1cc(C(=O)Nc2nnc(-c3ccccc3)s2)cc(F)c1O [Compound 2]
Found: 2.2

Lookup: Record: O=Cc1cc(C(=O)N2CCCN(c3cccc(N4CCCC4)c3)CC2)cc(F)c1O [Compound 98]
Found: 18.1

Lookup: Record: O=Cc1cc(C(=O)N2CC[C@H](c3ccc(N4CCCC4)cc3)C2)cc(F)c1O (single isomer, unassigned) [Compound 156]
Found: 3.2

Lookup: Record: O=Cc1cc(C(=O)N2CCOC(c3cccc(N4CCCC4)c3)C2)cc(F)c1O (racemic) [Compound 150]
Found: 3.1

Lookup: Record: O=Cc1cc(C(=O)Nc2nc(-c3ccccc3)cs2)cc(F)c1O [Compound 6]
Found: 3.3

Lookup: Record: O=Cc1cc(C(=O)N2CCC(c3ccc(N4CCCC4)cc3)C2)cc(F)c1O (centres unmarked) [Compound 82]
Found: 3.5

Lookup: Record: NS(=O)(=O)c1ccc(-c2nsc(-c3cc(F)c(O)c(C=O)c3)n2)cc1 [Compound 170]
Found: 5.36

Lookup: Record: CN1CCN(C(=O)Oc2c(F)cc(-c3nc(-c4ccc(N5CCCC5)cc4)ns3)cc2C=O)CC1 [Compound 175]
Found: 0.3

Lookup: Record: O=Cc1cc(C(=O)N2CCC(c3ccc(N4CCCC4)cc3)CC2)cc(F)c1O [Compound 34]
Found: 0.4

Lookup: Record: O=Cc1cc(C(=O)Nc2nc(-c3ccc(N4CCCC4)cc3)ns2)cc(F)c1O [Compound 167]
Found: 0.6

Lookup: Record: C[n+]1ccccc1Oc1c(F)cc(-c2nc(-c3ccc(N4CCCC4)cc3)ns2)cc1C=O [Compound 177]
Found: 0.6

Lookup: Record: COc1cc(-c2cnn(-c3ccc(C(F)(F)F)cc3)c2)cc(C=O)c1O [Compound 128]
Found: 0.8

Lookup: Record: CN1C(=O)Oc2c(F)cc(-c3nc(-c4ccc(N5CCCC5)cc4)ns3)cc2C1O (centres unmarked) [Compound 178]
Found: 0.43

Lookup: Record: O=Cc1cc(C(=O)N2CCN(c3ccc(N4CCCC4)nc3)CC2)cc(F)c1O [Compound 140]
Found: 7.2
